B1: CPEB3 Ribozyme (parent)
chain: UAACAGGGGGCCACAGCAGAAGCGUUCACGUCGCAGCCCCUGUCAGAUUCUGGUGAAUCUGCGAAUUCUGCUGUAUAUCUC

- Variants of: B1
- METHOD DESCRIPTION: self-cleavage, relative activity (ratio to wild type); higher = more cleavage; in vitro, sequencing
I would appreciate it if you labelled entries 1 when self-cleavage is 0.3 or higher, otherwise -1.

Query block: Check the entry U41C U78G : does self-cleavage equal or exceed 0.3?
Result block: 1

Query block: Answer whether self-cleavage of U26A C27A is greater than or equal to 0.3.
Result block: 1

Query block: Answer whether self-cleavage of U51A U54A is greater than or equal to 0.3.
Result block: 1

Query block: Does G55U C62U have a reported self-cleavage of at least 0.3?
Result block: -1

Query block: Kindly determine if self-cleavage recorded for C23U U67C is above or exactly 0.3.
Result block: -1

***
Query block: Hello, I need to know if C50A U72C has measured self-cleavage not below 0.3. Thanks!
Result block: 1

Query block: Please check the record C59A U72A and state if its self-cleavage is at or above 0.3.
Result block: -1

Query block: Decide: is the reported value of self-cleavage for A45G C62A equal to or greater than 0.3?
Result block: 1

Query block: Does the variant A13G C50A have recorded self-cleavage that is 0.3 or more?
Result block: 1
